Reference for the values: patent US11702404B2

Listed here: items and their measured Predicted Hepatic Clearance (Pred. Cl.).
# methodSummary: Microsomal stability, human liver microsomes (predicted hepatic clearance)
# testContext: predicted from in vitro microsomal stability data
// return numeric value only (unit: mL/min/kg, not printed)

| entrySmiles | measuredParameter | valueMeasured |
| --- | --- | --- |
| COCCn1c(Cc2ccc(-c3cccc(OCc4ccc(Cl)cc4OCC(F)F)n3)cc2F)nc2ccc(C(=O)O)cc21 | Predicted Hepatic Clearance (Pred. Cl.) | 5.67 |
| Cc1conc1Cn1c(Cc2ccc(-c3cccc(OCc4ccc(C#N)cc4F)n3)cc2F)nc2ccc(C(=O)O)cc21 | Predicted Hepatic Clearance (Pred. Cl.) | 3.67 |
| COCCn1c(Cc2cc(F)c(-c3cccc(OCc4ccc(C)nc4)n3)cc2F)nc2ccc(C(=O)O)cc21 | Predicted Hepatic Clearance (Pred. Cl.) | 10 |
| N#Cc1ccc(COc2cccc(-c3cc(F)c(Cc4nc5ccc(C(=O)O)cc5n4CC4(O)CC4)cc3F)n2)c(F)c1 | Predicted Hepatic Clearance (Pred. Cl.) | 3.83 |
| N#CCC1(Cn2c(Cc3ccc(-c4cccc(OCc5ccc(C#N)cc5F)n4)cc3C#N)nc3ccc(C(=O)O)cc32)CC1 | Predicted Hepatic Clearance (Pred. Cl.) | 5.17 |

Consider now this further compound.
Ask: Item `COCCn1c(Cc2ccc(-c3cccc(OCc4ccc(C#N)cc4F)n3)cc2CO)nc2ccc(C(=O)O)cc21` has what recorded Predicted Hepatic Clearance (Pred. Cl.)?
Reply: 6.7
